List of cell count values.
# method notes: supercomplex reporter luminescence per Hoechst cell count – Hoechst nuclei count (AID 1645838);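 note: control cybrid cells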
# particulars: Cells, luminescence/Hoechst cell count ratio, measured here: cell number, Hoechst nuclei count, library stock concentration (final well concentration not given) 10 mM
Out of some 2,000 compounds screened, about 100 (5%) were called active. The list comes from a sample in which actives are over-represented; it also holds close analogues and randomly drawn compounds.

{"columns": ["compound", "cell count"],
 "data": [
  ["CC(C)NCC(O)c1ccc(O)c(O)c1 (stereo unspecified)", 6300],
  ["COc1cccc(OC)c1-c1ccc(CC(NC(=O)c2c(Cl)cccc2Cl)C(=O)O)cc1 (stereo unspecified)", 5840],
  ["C#Cc1cccc(Nc2ncnc3cc(OCCOC)c(OCCOC)cc23)c1", 3820],
  ["Cn1c(SCC(=O)N2CCCC2C(=O)Nc2ccccc2-c2ccccc2)nc2ccccc21 (stereo unspecified)", 5710],
  ["O=C(O)c1cc(O)c2ccccc2c1O", 3940],
  ["Cn1c2cc(S(C)=O)sc2c2cnn(Cc3cccc(N)c3)c(=O)c21 (stereo unspecified)", 6600]
]}
